# STUDY TARGET: IgE-Tb / soluble IgE receptor FcεRIα with a Y131A mutation (Homo sapiens, UniProt P01854, N146Q/N252Q)
# Construct: fused on or other part: Terbium chelate (LanthaScreen amine-reactive) on IgE-Fc; Alexa Fluor 488 hydrazide on the oxidised glycans of sFcεRIα; Both are labels and no part of the key
# Sequence (P01854 104-427 N146Q/N252Q): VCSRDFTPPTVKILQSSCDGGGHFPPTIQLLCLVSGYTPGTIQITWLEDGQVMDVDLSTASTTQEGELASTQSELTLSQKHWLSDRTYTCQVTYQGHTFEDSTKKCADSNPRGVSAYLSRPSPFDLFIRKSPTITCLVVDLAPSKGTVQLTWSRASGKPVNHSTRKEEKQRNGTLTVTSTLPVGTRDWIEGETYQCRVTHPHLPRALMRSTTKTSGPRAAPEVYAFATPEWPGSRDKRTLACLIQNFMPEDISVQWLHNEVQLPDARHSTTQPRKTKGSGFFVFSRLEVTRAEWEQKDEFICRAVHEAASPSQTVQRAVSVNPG
# Sequence (P12319 26-201 Y156A partner): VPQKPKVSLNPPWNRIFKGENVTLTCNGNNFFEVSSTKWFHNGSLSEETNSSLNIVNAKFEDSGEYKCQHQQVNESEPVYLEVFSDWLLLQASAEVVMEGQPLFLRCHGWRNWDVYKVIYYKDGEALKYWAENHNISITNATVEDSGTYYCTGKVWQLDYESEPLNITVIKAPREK
# EXPERIMENT SUMMARY: in vitro FRET assay: binding of IgE-Tb to receptor FcεRIα-Y131A-AF488 and its inhibition by compounds
# DETAILS: 5 nM IgE-Tb, 25 nM FcεRIα-Y131A-AF488, 2 hours at room temperature; read-out: FRET IC50 range
pIC50: −log10 of the molar value.
PROPERTY LABEL: pIC50

[in] Which pIC50 is reported for this compound? CC(C)CNS(=O)(=O)c1c2c(cc3cnc(C4CC4)cc13)C(O)CC2 (stereo not shown)
[out] 5.70 to 7.00

[in] Query CC(C)CNS(=O)(=O)c1c2c(cc3cnc(C4CC4)cc13)CC(Nc1ccnnc1)C2 (stereo not shown) next
[out] 7.30 to 8.00

[in] Consider next the compound CC(C)(F)CNS(=O)(=O)c1c2c(cc3cnc(C4CC4)cc13)C[C@@H](NC(=O)c1ccc3[nH]nnc3c1)C2 in the same way.
[out] 7.30 to 8.00

[in] Now give it for Cc1nc(C2CC2)cc2c(S(=O)(=O)NCC(C)C)c3c(cc12)CCC3 too.
[out] 5.70 to 7.00

* * *

# STUDY TARGET: IgE-Tb / soluble IgE receptor FcεRIα with a Y131A mutation (Homo sapiens, UniProt P01854, N146Q/N252Q)
# Construct: fused on or other part: Terbium chelate (LanthaScreen amine-reactive) on IgE-Fc; Alexa Fluor 488 hydrazide on the oxidised glycans of sFcεRIα; Both are labels and no part of the key
# EXPERIMENT SUMMARY: in vitro FRET assay: binding of IgE-Tb to receptor FcεRIα-Y131A-AF488 and its inhibition by compounds
# DETAILS: 5 nM IgE-Tb, 25 nM FcεRIα-Y131A-AF488, 2 hours at room temperature; read-out: FRET IC50 range
Task for the reader: assign each of the following molecules its reported IC50.

[in] What value of measured IC50 is listed for Cc1nnc(-c2ncc(N[C@@H]3Cc4cc5cnc(C6CC6)cc5c(S(=O)(=O)NCC(C)(C)F)c4C3)cn2)o1 ?
[out] 10 to 50 nM

[in] Same question for CC1(CNS(=O)(=O)c2c3c(cc4cnc(C5CC5)cc24)CC(C(=O)Nc2cccnc2)C3)COC1 (centres unmarked) please.
[out] 100 to 2000 nM

[in] Let us now turn to CC(=O)Nc1c2c(c(S(=O)(=O)NCC(C)C)c3cc(C4CC4)ncc13)CCC2
[out] 100 to 2000 nM

[in] Check CC(C)(F)CNS(=O)(=O)c1c2c(cc3cnc(C4CC4)cc13)CC(c1nc3c(=O)[nH]ccc3[nH]1)C2 (centres unmarked) too.
[out] 50 to 100 nM

[in] Param item: CC(C)(F)CNS(=O)(=O)c1c2c(cc3cnc(C4CC4)cc13)CC(Nc1nc3ccccc3[nH]1)C2 (centres unmarked)
[out] 10 to 50 nM

[in] Lookup CC(C)(F)CNS(=O)(=O)c1c2c(cc3cnc(C4CC4)cc13)CC1CC21 (centres unmarked)
[out] 100 to 2000 nM

[in] What would you report for CC(C)(F)CNS(=O)(=O)c1c2c(cc3c(F)nc(C4CC4)cc13)CC(Nc1ccc(C(N)=O)nc1)C2 (centres unmarked) ?
[out] 10 to 50 nM

[in] Now try CC(C)NC(=O)c1ccc(N[C@@H]2Cc3cc4cnc(C5CC5)cc4c(S(=O)(=O)NCC(C)(C)F)c3C2)cn1 .
[out] 10 to 50 nM

[in] Record: CC(C)(F)CNS(=O)(=O)c1c2c(cc3cnc(C4CC4)cc13)CN(Cc1cccnc1)C2
[out] 100 to 2000 nM

[in] Another: CC(=O)Nc1cncc(NC2Cc3cc4cnc(C5CC5)cc4c(S(=O)(=O)NCC(C)(C)F)c3C2)c1 (centres unmarked)
[out] 10 to 50 nM

[in] # iterate: CC(C)(F)CNS(=O)(=O)c1c2c(cc3cnc(C4CC4)cc13)C[C@@H](NC(=O)c1c[nH]c3ccccc13)C2
[out] 10 to 50 nM

[in] Please do the same for CC(C)(F)CNS(=O)(=O)c1c2c(cc3cnc(C4CC4)cc13)CC(c1ccno1)C2 (centres unmarked) as well.
[out] 100 to 2000 nM

[in] Also need CC(C)(F)CNS(=O)(=O)c1c2c(cc3cnc(C4CC4)cc13)CC(Nc1cncnc1Nc1cccnc1)C2 (centres unmarked) , thanks.
[out] 1 to 10 nM

[in] Ok, now Cn1ncc(NC2Cc3cc4c(F)nc(C5CC5)cc4c(S(=O)(=O)NCC(C)(C)F)c3C2)cc1=O (centres unmarked)
[out] 10 to 50 nM

[in] Param item: Cn1ncc(NC2Cc3cc4cnc(C5CC5)cc4c(S(=O)(=O)NCC(C)(C)F)c3C2)cc1=O (centres unmarked)
[out] 10 to 50 nM

[in] Subsequent entry: CC(C)(F)CNS(=O)(=O)c1c2c(cc3cnc(C4CC4)cc13)CC(Nc1ccc(S(C)(=N)=O)nc1)C2 (centres unmarked)
[out] 10 to 50 nM

[in] Further, for Cn1cc(C(=O)N[C@@H]2Cc3cc4cnc(C5CC5)cc4c(S(=O)(=O)NCC(C)(C)F)c3C2)c2ccccc21 ?
[out] 10 to 50 nM

[in] And then Cc1ccc(NC2Cc3cc4cnc(C5CC5)cc4c(S(=O)(=O)NCC(C)(C)O)c3C2)nn1 (centres unmarked) , what is it?
[out] 100 to 2000 nM

[in] Another molecule to check: CC(C)(F)CNS(=O)(=O)c1c2c(cc3cnc(C4CC4)cc13)C[C@@H](NC(=O)c1c[nH]c3ccc(F)cc13)C2
[out] 10 to 50 nM

[in] Next molecule: CC(C)(F)CNS(=O)(=O)c1c2c(cc3cnc(C4CC4)cc13)C[C@@H](Nc1ccc(C(C)(C)O)nc1)C2
[out] 10 to 50 nM

[in] Same again, this time with CC(C)(F)CNS(=O)(=O)c1c2c(cc3cnc(C4CC4)cc13)C[C@@H](Nc1ccc(CO)nc1)C2
[out] 10 to 50 nM

[in] And what about the molecule C[S+]([O-])c1ccc(NC2Cc3cc4cnc(C5CC5)cc4c(S(=O)(=O)NCC(C)(C)F)c3C2)cn1 (centres unmarked) ?
[out] 10 to 50 nM

[in] Then CC(C)(F)CNS(=O)(=O)c1c2c(cc3cnc(C4CC4)cc13)CN(c1cccnc1N)C2 ?
[out] 100 to 2000 nM

[in] Can you check CC(C)(F)CNS(=O)(=O)c1c2c(cc3cnc(C4CC4)cc13)CC(Nc1cncc(S(C)(=O)=O)c1)C2 (centres unmarked) next?
[out] 10 to 50 nM

[in] Same for Cc1ncsc1C(=O)N[C@@H]1Cc2cc3cnc(C4CC4)cc3c(S(=O)(=O)NCC(C)(C)F)c2C1
[out] 100 to 2000 nM

[in] CC(=O)NS(=O)(=O)c1ccc(N[C@@H]2Cc3cc4cnc(C5CC5)cc4c(S(=O)(=O)NCC(C)(C)F)c3C2)cn1 ?
[out] 50 to 100 nM

[in] Then CC(C)(F)CNS(=O)(=O)c1c2c(cc3cnc(C4CC4)cc13)CC(n1ccnc1NCC1CC1)C2 (centres unmarked) ?
[out] 100 to 2000 nM

[in] Cc1nnc(-c2ccc(NC3Cc4cc5nnc(C6CC6)cc5c(S(=O)(=O)NCC(C)(C)F)c4C3)cn2)o1 (centres unmarked) ?
[out] 10 to 50 nM

[in] CC(C)CNS(=O)(=O)c1c2c(cc3cnc(C4CC4)cc13)CC(NC1=CC(=O)CC1)C2 (centres unmarked) , same question.
[out] 10 to 50 nM

All figures here come from patent US12577228B2.
